Some binders, each annotated with its measured koff.
assay.system: T1, mouse tenascin-C rCd4-His-FBG (rat; mouse, UniProt P05540 207-392, limits assumed)
T1 construct: domain: domains 3 and 4; C-terminal FBG fusion; biotinylated in the ELISA screen; also called Mu TNC; mouse TNC rCd4-His-FBG; not shown: 6His tag
T1 sequence (chain (part 1 of 2)): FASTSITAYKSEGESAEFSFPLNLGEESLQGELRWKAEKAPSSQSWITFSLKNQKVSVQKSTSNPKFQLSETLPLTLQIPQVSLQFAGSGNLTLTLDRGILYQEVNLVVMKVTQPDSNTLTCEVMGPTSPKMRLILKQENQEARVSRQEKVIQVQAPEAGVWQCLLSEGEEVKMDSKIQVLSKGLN
T1 sequence (chain (part 2 of 2)): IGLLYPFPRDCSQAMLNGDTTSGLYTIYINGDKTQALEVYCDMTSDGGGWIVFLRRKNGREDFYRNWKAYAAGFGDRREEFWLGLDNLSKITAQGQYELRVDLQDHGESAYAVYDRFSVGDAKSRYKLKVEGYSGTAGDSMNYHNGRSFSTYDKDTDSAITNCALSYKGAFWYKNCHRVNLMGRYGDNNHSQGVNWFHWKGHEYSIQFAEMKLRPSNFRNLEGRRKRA
method.description: SPR off-rate screen, captured IgG4 supernatant, 25 C
measured.property: koff (s⁻¹)

binder="180_11_F5 human IgG4 (antibody, V domains shown, human IgG4 with hinge S241P; also called Antibody 180 11 F5 (derived from B12)) VH: QVQLVESGGGLVQPGRSLRLSCAASGFTFDDYAMHWVRQAPGKGLEWVSGISGSGGSTYYADSVKGRFTISRDNAKNSLYLQMNSLRAEDTALYYCAKVMRTGLDTFDIWGQGTMVTVSS VL: DIQMTQSPASLPTPVGDRVTITCRASQYIQGFLNWYQQKPGKAPKLLIYDASNLETGVPSRFSGSGSGTDFTLTISSLQPEDFATYYCQQSYSTPQTFGQGTKVDIKR" measured_property=koff measurement=1
binder="161_01_H10 human IgG4 (antibody, V domains shown, human IgG4 with hinge S241P; also called Antibody 161 01 H10 (derived from 2A5)) VH: EVRLVQSGAEVKKPGASVKVSCKVSGYTLTELSMHWVRQAPGKGLEWMGGFDPEDGETIYAQKFQGRVTMTEDTSTDTAYMELSSLRSEDTAVYYCATAQPVWAPGTYWGQGTLVTVSS VL: DIQMTQSPASLPTSVGDRVTITCRASQYIQGFLNWYQQKPGKAPRLLIYAASTLQDGVPSRFSGSGYGTDFTLTISSLQPEDFATYYCQQSYSTPWTFGQGTKVEIKR" measured_property=koff measurement=1.9e-06
